target: DPP-IV (Homo sapiens, UniProt P27487); construct: purchased BioVision K779-100; experiment: DPP-IV inhibition activity (DPP-IV Activity Assay Kit, AMC fluorescence); assay type: biochemical; settings: summary
Sequence (P27487 whole entry, species assumed): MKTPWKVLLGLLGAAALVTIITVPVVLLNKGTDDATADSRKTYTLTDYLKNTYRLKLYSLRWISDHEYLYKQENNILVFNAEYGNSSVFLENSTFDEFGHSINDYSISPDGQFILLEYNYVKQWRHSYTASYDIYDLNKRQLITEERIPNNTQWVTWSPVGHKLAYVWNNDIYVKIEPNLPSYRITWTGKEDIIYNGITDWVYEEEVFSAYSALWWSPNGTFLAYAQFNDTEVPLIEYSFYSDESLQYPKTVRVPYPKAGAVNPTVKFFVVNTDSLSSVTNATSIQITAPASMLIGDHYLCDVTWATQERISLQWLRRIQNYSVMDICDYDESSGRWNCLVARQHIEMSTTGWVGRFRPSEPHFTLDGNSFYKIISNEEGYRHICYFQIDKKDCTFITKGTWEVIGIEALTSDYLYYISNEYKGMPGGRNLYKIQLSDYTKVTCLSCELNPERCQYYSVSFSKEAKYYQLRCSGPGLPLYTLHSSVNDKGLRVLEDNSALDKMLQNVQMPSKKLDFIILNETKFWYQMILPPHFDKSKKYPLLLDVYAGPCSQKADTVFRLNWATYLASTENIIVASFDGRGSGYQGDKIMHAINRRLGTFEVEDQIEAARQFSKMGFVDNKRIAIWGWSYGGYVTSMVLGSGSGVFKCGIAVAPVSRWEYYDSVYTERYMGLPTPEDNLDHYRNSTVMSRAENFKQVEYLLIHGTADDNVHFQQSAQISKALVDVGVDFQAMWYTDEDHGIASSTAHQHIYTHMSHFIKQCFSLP
REPORTED PROPERTY: DPP-IV inhibition (in words)

COc1cc2c(cc1O[C@@H]1O[C@H](CO)[C@@H](O)[C@H](O)[C@H]1O)[C@@]1(O)C(=O)C[C@@H](O)C[C@H]1CC2 [Compound 6, elatostemanoside F] | weak effects
COc1cc2c(cc1O[C@@H]1O[C@H](CO)[C@@H](O)[C@H](O)[C@H]1O)[C@@]1(O)C(=O)[C@@H](O)[C@H](O)C[C@H]1CC2 [Compound 8, elatostemanoside H] | weak effects
COc1cc2c(cc1O[C@@H]1O[C@H](CO)[C@@H](O)[C@H](O)[C@H]1O)[C@@]1(O)C(=O)C[C@H](O)C[C@H]1CC2 [Compound 5, elatostemanoside E] | weak effects

----------
biological target: DPP-IV (Homo sapiens, UniProt P27487); construct: purchased BioVision K779-100; assay: DPP-IV inhibition activity (DPP-IV Activity Assay Kit, AMC fluorescence); format: biochemical; settings: at 150 μM
Here the recorded inhibition at 150 µM is given for each entry.
REPORTED PROPERTY: inhibition at 150 µM

OC[C@H]1O[C@@H](Oc2cc3c(cc2O)CCc2cccc(O)c2-3)[C@H](O)[C@@H](O)[C@@H]1O | ≥ 50%
COc1cc2c(cc1O[C@@H]1O[C@H](CO)[C@@H](O)[C@H](O)[C@H]1O)[C@@]1(O)C(=O)C[C@@H](O)C[C@H]1CC2 [Compound 6, elatostemanoside F] | ≥ 50%
COc1cc2c(cc1O[C@@H]1O[C@H](CO)[C@@H](O)[C@H](O)[C@H]1O)[C@@]1(O)C(=O)C[C@H](O)C[C@H]1CC2 [Compound 5, elatostemanoside E] | ≥ 50%
COc1cc2c(cc1O[C@@H]1O[C@H](CO)[C@@H](O)[C@H](O)[C@H]1O)[C@@]1(O)C(=O)[C@@H](O)[C@H](O)C[C@H]1CC2 [Compound 8, elatostemanoside H] | ≥ 50%
